Values were extracted from ChEMBL document CHEMBL1145498.

Molecular target: Dual specificity protein kinase CLK1 (Homo sapiens) (UniProt P49759)
Sequence (P49759 whole entry, looked up): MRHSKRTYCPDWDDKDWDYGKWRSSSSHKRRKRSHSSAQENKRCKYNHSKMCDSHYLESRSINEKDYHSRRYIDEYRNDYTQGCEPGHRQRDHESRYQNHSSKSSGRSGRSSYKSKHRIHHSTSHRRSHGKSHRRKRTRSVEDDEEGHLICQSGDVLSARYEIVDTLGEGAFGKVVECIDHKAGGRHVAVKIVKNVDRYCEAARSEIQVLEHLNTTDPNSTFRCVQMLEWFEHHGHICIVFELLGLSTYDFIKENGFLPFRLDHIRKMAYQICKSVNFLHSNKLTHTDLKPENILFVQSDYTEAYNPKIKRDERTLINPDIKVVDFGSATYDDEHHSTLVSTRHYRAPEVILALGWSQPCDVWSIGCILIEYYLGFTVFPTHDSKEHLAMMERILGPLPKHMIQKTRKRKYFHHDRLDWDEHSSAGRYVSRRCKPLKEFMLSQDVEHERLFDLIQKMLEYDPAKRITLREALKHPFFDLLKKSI
Listing of recorded ΔTm by entry.
Could you give me the number in °C? Just the number is fine.

Record excerpt, results attached:
>  <Compound>
CN(c1cccnc1)c1cc2c(Nc3ccc(F)c(Cl)c3)c(C#N)cnc2cn1

>  <Property label>
ΔTm

>  <Value>
4.9

$$$$
>  <Compound>
Cc1nc2sccn2c(=O)c1CCN1CCC(=C(c2ccccc2)c2ccc(F)cc2)CC1

>  <Property label>
ΔTm

>  <Value>
6.5

$$$$
>  <Compound>
CC(C)n1cnc2c(NCc3ccccc3O)nc(NCCCO)nc21

>  <Property label>
ΔTm

>  <Value>
0.9

$$$$
>  <Compound>
Cc1cncc2cccc(S(=O)(=O)N3CCCNC[C@@H]3C)c12

>  <Property label>
ΔTm

>  <Value>
3

$$$$
>  <Compound>
N#CC(C#N)=Cc1ccc(O)c(O)c1

>  <Property label>
ΔTm

>  <Value>
0.7

$$$$
>  <Compound>
O=C1NC(=O)c2c1c1c3ccccc3[nH]c1n1cncc21 [ISOGRANULATIMIDE]

>  <Property label>
ΔTm

>  <Value>
4.5

$$$$
>  <Compound>
N#C/C(=C1/Nc2ccccc2S1)c1ccnc(NCCc2cccnc2)n1

>  <Property label>
ΔTm

>  <Value>
5.9

$$$$
>  <Compound>
COc1cc2ncnc(Nc3ccc(F)c(Cl)c3)c2cc1OCCCN1CCOCC1

>  <Property label>
ΔTm

>  <Value>
0.7

$$$$

Test item Nc1cccc(-c2cc3c(Oc4cccc(O)c4)ncnc3[nH]2)c1 ; Dual specificity protein kinase CLK1 (Homo sapiens) (UniProt P49759); reported ΔTm was 1.8

Test item CCOC(=O)c1cnc2oc3ccc(O)cc3c2c1-c1ccccc1 ; Dual specificity protein kinase CLK1 (Homo sapiens) (UniProt P49759); reported ΔTm was 6.2
